- System under test: BACE-1 (Homo sapiens)
- Sequence (P56817 46-501): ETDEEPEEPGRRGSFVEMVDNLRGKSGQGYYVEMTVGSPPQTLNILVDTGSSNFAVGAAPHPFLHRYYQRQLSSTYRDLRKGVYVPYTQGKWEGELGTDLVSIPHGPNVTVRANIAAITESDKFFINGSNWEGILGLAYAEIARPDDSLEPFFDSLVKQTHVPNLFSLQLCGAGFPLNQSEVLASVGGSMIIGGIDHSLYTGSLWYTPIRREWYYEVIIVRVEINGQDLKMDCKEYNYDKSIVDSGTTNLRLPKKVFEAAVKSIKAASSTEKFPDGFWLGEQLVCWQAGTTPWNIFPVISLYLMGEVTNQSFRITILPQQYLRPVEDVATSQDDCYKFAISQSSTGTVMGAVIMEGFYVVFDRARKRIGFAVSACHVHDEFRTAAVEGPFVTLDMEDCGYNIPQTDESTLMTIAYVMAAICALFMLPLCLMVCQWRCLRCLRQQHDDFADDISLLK
# key: entry, value: log10 IC50
Property: log10 IC50 (log10 of the value in nM)

In [3]: df
Out[3]:
                                   molecule    property  value_observed
0  Nc1c2c(nc3c1C(c1ccc(Cl)c(Cl)c1)c1ccc(OCC(=O)c4ccccc4)cc1O3)CCCC2 (stereo not drawn)  log10 IC50            3.33
1  COc1ccc(S(=O)(=O)Oc2ccc3c(c2)Oc2nc4c(c(N)c2C3c2cccc(OC)c2)CCCC4)cc1 (stereo not drawn)  log10 IC50            3.16
2  Cc1ccc(S(=O)(=O)Oc2ccc3c(c2)Oc2nc4c(c(N)c2C3c2ccc(Cl)c(Cl)c2)CCCC4)cc1 (stereo not drawn)  log10 IC50            2.40
3  Nc1c2c(nc3c1C(c1cccc([N+](=O)[O-])c1)c1ccc(OCC(=O)c4ccc(Cl)cc4)cc1O3)CCCC2 (stereo not drawn)  log10 IC50            2.58
4  Nc1c2c(nc3c1C(c1cccc([N+](=O)[O-])c1)c1ccc(OS(=O)(=O)c4ccc(F)cc4)cc1O3)CCCC2 (stereo not drawn)  log10 IC50            3.43
5  Nc1c2c(nc3c1C(c1ccc(Cl)c(Cl)c1)c1ccc(OCC(=O)c4ccc(Cl)cc4)cc1O3)CCCC2 (stereo not drawn)  log10 IC50            2.64
